tested on: SK-MEL-28 melanoma cells; experiment: Cell proliferation WST-1 assay, single dose (Example 4); format: cell-based; conditions: 100 μM, 48 hours
observation.type: Cell Viability (% of Vehicle) SK-MEL-28

[
  {
    "molecule": "CCOc1ccc(/C=C2\\SC(=O)N(CCNC(=O)OC(C)(C)C)C2=O)cc1 [Compound 25c]",
    "tested.on": "SK-MEL-28 melanoma cells",
    "test.value": "73 ± 1 % of Vehicle"
  },
  {
    "molecule": "CCOc1ccc(/C=C2\\SC(=O)N(CCCl)C2=O)cc1 [Compound 28f]",
    "tested.on": "SK-MEL-28 melanoma cells",
    "test.value": "97 ± 3 % of Vehicle"
  },
  {
    "molecule": "CC(C)COc1ccc(/C=C2\\SC(=O)N(CCN)C2=O)cc1 [Compound 30g]",
    "tested.on": "SK-MEL-28 melanoma cells",
    "test.value": "0.8 ± 0.2 % of Vehicle"
  }
]

Ask | Supply Cell Viability (% of Vehicle) SK-MEL-28 value. Item: CCOc1ccc(/C=C2\SC(=O)N(Cc3ccc(C(=O)OC(C)(C)C)cc3)C2=O)cc1 [Compound 28p]
Reply | 105 ± 3 % of Vehicle

Ask | Supply Cell Viability (% of Vehicle) SK-MEL-28 value. Item: CCOc1ccc(/C=C2\CC(=O)N(CCN)C2=O)cc1 [Compound 13]
Reply | 65 ± 4 % of Vehicle

Ask | Supply Cell Viability (% of Vehicle) SK-MEL-28 value. Item: CC(C)COc1ccccc1/C=C1\SC(=O)N(CCN)C1=O [Compound 30j]
Reply | 1.0 ± 0.1 % of Vehicle

Ask | Supply Cell Viability (% of Vehicle) SK-MEL-28 value. Item: CCOc1ccc(/C=C2\SC(=O)N(C(C)CN)C2=O)cc1 (stereo not shown) [Compound 22c]
Reply | 28 ± 4 % of Vehicle

Ask | Supply Cell Viability (% of Vehicle) SK-MEL-28 value. Item: CCOc1ccc(/C=C2\SC(=O)N(CCNC(=O)c3ccc(C#N)cc3)C2=O)cc1 [Compound 25d]
Reply | 103 ± 2 % of Vehicle

Ask | Supply Cell Viability (% of Vehicle) SK-MEL-28 value. Item: CCOc1ccc(/C=C2\SC(=O)N(CCN)C2=O)cc1 [Compound 76]
Reply | 11 ± 7 % of Vehicle

Ask | Supply Cell Viability (% of Vehicle) SK-MEL-28 value. Item: NCCN1C(=O)S/C(=C\c2ccc(OCc3ccccc3)cc2)C1=O [Compound 30h]
Reply | 1.0 ± 1 % of Vehicle

Ask | Supply Cell Viability (% of Vehicle) SK-MEL-28 value. Item: CCOc1ccc(/C=C2\SC(=O)N(CCNC(=O)OCc3ccccc3)C2=O)cc1 [Compound 26d]
Reply | 97 ± 1 % of Vehicle

Ask | Supply Cell Viability (% of Vehicle) SK-MEL-28 value. Item: CCOc1ccc(/C=C2\SC(=O)N(CCNCc3ccc(C#N)cc3)C2=O)cc1 [Compound 23e]
Reply | 96 ± 6 % of Vehicle

Ask | Supply Cell Viability (% of Vehicle) SK-MEL-28 value. Item: CCOc1ccc(/C=C2\SC(=O)N(CCN(Cc3ccccc3)Cc3ccccc3)C2=O)cc1 [Compound 24b]
Reply | 104 ± 4 % of Vehicle

Ask | Supply Cell Viability (% of Vehicle) SK-MEL-28 value. Item: CCCc1ccc(/C=C2\SC(=O)N(CCN)C2=O)cc1 [Compound 30e]
Reply | 0.6 ± 0.4 % of Vehicle

Ask | Supply Cell Viability (% of Vehicle) SK-MEL-28 value. Item: CCOc1ccc(/C=C2\SC(=O)N(Cc3ccc([N+](=O)[O-])cc3)C2=O)cc1 [Compound 28n]
Reply | 104 ± 3 % of Vehicle

Ask | Supply Cell Viability (% of Vehicle) SK-MEL-28 value. Item: CCOc1ccc(/C=C2\SC(=O)N(CCNC(=O)C(F)(F)F)C2=O)cc1 [Compound 25b]
Reply | 105 ± 2 % of Vehicle

Ask | Supply Cell Viability (% of Vehicle) SK-MEL-28 value. Item: CCOc1cccc(/C=C2\SC(=O)N(CCN)C2=O)c1 [Compound 30b]
Reply | 36 ± 6 % of Vehicle

Ask | Supply Cell Viability (% of Vehicle) SK-MEL-28 value. Item: CCOc1ccc(CC2SC(=O)N(CCN)C2=O)cc1 (stereo not shown) [Compound 6]
Reply | 88 ± 3 % of Vehicle

Ask | Supply Cell Viability (% of Vehicle) SK-MEL-28 value. Item: CCOc1ccc(/C=C2\SC(=S)N(CCN)C2=O)cc1 [Compound 9]
Reply | 45 ± 7 % of Vehicle

Ask | Supply Cell Viability (% of Vehicle) SK-MEL-28 value. Item: CCOc1ccc(/C=C2\SC(=O)N(Cc3cccc(C(=O)O)c3)C2=O)cc1 [Compound 28r]
Reply | 83 ± 7 % of Vehicle

Ask | Supply Cell Viability (% of Vehicle) SK-MEL-28 value. Item: CCOc1ccc(/C=C2\SC(=O)NC2=O)cc1 [Compound 2]
Reply | 103 ± 1 % of Vehicle

Ask | Supply Cell Viability (% of Vehicle) SK-MEL-28 value. Item: CCCN1C(=O)S/C(=C\c2ccc(OCC)cc2)C1=O [Compound 28d]
Reply | 101 ± 3 % of Vehicle

Ask | Supply Cell Viability (% of Vehicle) SK-MEL-28 value. Item: CCOc1ccc(/C=C2\SC(=O)N(CCO)C2=O)cc1 [Compound 28e]
Reply | 91 ± 1 % of Vehicle

Ask | Supply Cell Viability (% of Vehicle) SK-MEL-28 value. Item: CCOc1ccc(/C=C2\SC(=O)N(Cc3ccccc3)C2=O)cc1 [Compound 28i]
Reply | 90 ± 3 % of Vehicle

Ask | Supply Cell Viability (% of Vehicle) SK-MEL-28 value. Item: CCOc1ccc(/C=C2\SC(=O)N(CCN(C)C)C2=O)cc1 [Compound 24a]
Reply | 101 ± 0.3 % of Vehicle

Ask | Supply Cell Viability (% of Vehicle) SK-MEL-28 value. Item: CCOc1ccc(/C=C2\SC(=O)N(CCN(Cc3ccc(C#N)cc3)Cc3cccc(C#N)c3)C2=O)cc1 [Compound 24c]
Reply | 107 ± 3 % of Vehicle

====

tested on: A375 melanoma cells; assay: Cell proliferation WST-1 assay, single dose (Example 4); format: cell-based; details: 100 μM, 48 hours
observation.type: Cell Viability (% of Vehicle) A375

[
  {
    "compound": "CCOc1cccc(/C=C2\\SC(=O)N(CCN)C2=O)c1 [Compound 30b]",
    "Cell Viability (% of Vehicle) A375": "19 ± 3 % of Vehicle"
  },
  {
    "compound": "CCOc1ccc(/C=C2\\SC(=O)N(CCNC(=O)OCC(C)C)C2=O)cc1 [Compound 26c]",
    "Cell Viability (% of Vehicle) A375": "102 ± 4 % of Vehicle"
  },
  {
    "compound": "CCOc1ccc(/C=C2\\SC(=O)N(CCNCc3ccccc3)C2=O)cc1 [Compound 23d]",
    "Cell Viability (% of Vehicle) A375": "13 ± 1 % of Vehicle"
  }
]

Ask | Supply Cell Viability (% of Vehicle) A375 value. Item: CCCN1C(=O)S/C(=C\c2ccc(OCC)cc2)C1=O [Compound 28d]
Reply | 119 ± 5 % of Vehicle

Ask | Supply Cell Viability (% of Vehicle) A375 value. Item: CCOc1ccc(/C=C2\CCN(CCN)C2=O)cc1
Reply | 95 ± 2 % of Vehicle

Ask | Supply Cell Viability (% of Vehicle) A375 value. Item: CCOc1ccc(/C=C2\SC(=O)N(Cc3cccc(N)n3)C2=O)cc1 [Compound 28b]
Reply | 111 ± 1 % of Vehicle

Ask | Supply Cell Viability (% of Vehicle) A375 value. Item: CCOc1ccc(/C=C2\SC(=O)N(CCNC)C2=O)cc1 [Compound 23a]
Reply | 95 ± 2 % of Vehicle

Ask | Supply Cell Viability (% of Vehicle) A375 value. Item: CCOc1ccc(/C=C2\SC(=O)N(Cc3ccccc3C(=O)O)C2=O)cc1 [Compound 28s]
Reply | 39 ± 1 % of Vehicle

Ask | Supply Cell Viability (% of Vehicle) A375 value. Item: CCOc1ccc(/C=C2\SC(=O)N(CCN)C2=O)cc1
Reply | 2.1 ± 2 % of Vehicle

====

target: ERK2 Y191A (Rattus norvegicus (Rat), UniProt P63086, Y191A); experiment: Fluorescence quenching (FQ) binding affinity; settings: read-out: KD Y191A (Site 2)
Sequence (P63086 whole entry Y191A): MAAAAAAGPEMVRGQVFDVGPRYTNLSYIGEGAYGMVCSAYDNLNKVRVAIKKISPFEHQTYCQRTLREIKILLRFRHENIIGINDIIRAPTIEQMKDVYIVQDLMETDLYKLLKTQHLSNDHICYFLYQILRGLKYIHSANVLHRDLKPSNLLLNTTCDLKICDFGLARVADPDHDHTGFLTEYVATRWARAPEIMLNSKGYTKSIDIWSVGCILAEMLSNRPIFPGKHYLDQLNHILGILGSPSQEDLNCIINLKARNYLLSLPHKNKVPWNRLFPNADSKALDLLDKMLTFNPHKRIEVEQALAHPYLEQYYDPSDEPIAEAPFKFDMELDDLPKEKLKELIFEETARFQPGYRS
observation.type: Kd (µM)
Your answer should be a plain number; it is taken to be in µM.

Ask | Supply Kd value. Item: O=S1(=O)C=CC(OS(=O)(=O)c2ccccc2)C1 (stereo not shown)
Reply | 0.13

====

molecular target: ERK2 R275A (Rattus norvegicus (Rat), UniProt P63086, R275A); assay: Fluorescence quenching (FQ) binding affinity; conditions: read-out: KD R275A (Site 3)
Sequence (P63086 whole entry R275A): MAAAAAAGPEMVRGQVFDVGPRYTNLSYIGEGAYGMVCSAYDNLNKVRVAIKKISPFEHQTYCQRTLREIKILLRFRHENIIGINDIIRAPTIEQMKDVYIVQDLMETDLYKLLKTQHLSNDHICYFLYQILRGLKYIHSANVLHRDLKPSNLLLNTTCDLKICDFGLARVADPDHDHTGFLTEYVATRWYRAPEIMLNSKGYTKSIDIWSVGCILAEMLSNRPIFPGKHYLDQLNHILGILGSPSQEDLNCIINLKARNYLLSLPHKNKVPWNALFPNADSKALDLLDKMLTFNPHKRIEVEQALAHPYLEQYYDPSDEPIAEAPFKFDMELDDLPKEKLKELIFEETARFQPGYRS
observation.type: Kd (nM)
Your answer should be a plain number; it is taken to be in nM.

Ask | Supply Kd value. Item: O=S1(=O)C=CC(OS(=O)(=O)c2ccccc2)C1 (stereo not shown) [SF-3-026]
Reply | 240
